# Assay overview: in vitro
# Type: cell-based
# Run parameters: human; GS4.1 cells, cellular viability
Quick list: CC50 per entry.

Answered cases to consult:
Compound	Assay metric	Result
COC(=O)N[C@H](C(=O)N1CCCC1c1ncc(-c2ccc(-c3csc4c(-c5cnc(C6CCCN6C(=O)[C@@H](NC(=O)OC(C)(C)C)C(C)C)[nH]5)csc34)cc2)[nH]1)C(C)C (some centres unmarked)	CC50	> 75 µM
COC(=O)N[C@H](C(=O)N1CCCC1c1ncc(-c2ccc(-c3csc4cc(C(=O)OC)[nH]c34)cc2)[nH]1)C(C)C (some centres unmarked)	CC50	10 to 75 µM
COC(=O)N[C@H](C(=O)N1CCC[C@H]1c1ncc(-c2ccc(-c3cn4cc(NC(=O)CNC(=O)[C@H](NC(=O)OC(C)(C)C)c5ccccc5)nc4s3)cc2)[nH]1)C(C)C	CC50	> 75 µM

Per the records, this compound ( COC(=O)N[C@H](C(=O)N1CCCC1c1ncc(-c2ccc(-c3ccc(-c4nc5sccn5c4Cl)cc3)cc2)[nH]1)C(C)C (some centres unmarked) ) has CC50 equal to 10 to 75 µM

Per the records, this compound ( COC(=O)N[C@H](C(=O)N1CCCC1c1nc(-c2ccc(-c3cc4sc(-c5ccc(-c6cnc([C@@H]7CCCN7C(=O)[C@@H](NC(=O)OC)C(C)C)[nH]6)cc5)cc4s3)cc2)c[nH]1)C(C)C (some centres unmarked) ) has CC50 equal to > 75 µM

###

# Tested on: HCV genotype 1a H77 strain subgenomic luciferase replicon (H1a-luc)
# Assay overview: Luciferase replicon assay, genotype 1a
# Type: cell-based
# Run parameters: Hepatitis C virus; genotype 1a; read-out: EC50 1a
Assay metric: EC50

Answered cases to consult:
Molecule	EC50
COC(=O)N[C@H](C(=O)N1CCC[C@H]1c1ncc(-c2ccc(-c3cc4sc(-c5ccc6[nH]c([C@@H]7CCCN7C(=O)[C@H](NC(=O)OC)c7ccccc7)nc6c5)cc4s3)cc2)[nH]1)C(C)C	0.1 to 1 nM
COC(=O)N[C@@H](C(=O)N1CCCC1c1nc2ccc(-c3csc4c(-c5ccc6[nH]c(C7CCCN7C(=O)[C@H](NC(=O)OC)C(C)C)nc6c5)csc34)cc2[nH]1)c1ccccc1 (stereo partly shown)	< 0.1 nM
COC(=O)NC(C(=O)N1CCCC1c1ncc(-c2cc3sc(-c4ccc5[nH]c(C6CCCN6C(=O)C(NC(=O)OC)C(C)C)nc5c4)cc3s2)[nH]1)C(C)C (stereo in doubt)	0.1 to 1 nM

Could you now consider this next molecule?
Per the records, this molecule ( COC(=O)N[C@H](C(=O)N1CCC[C@H]1c1ncc(-c2ccc(-c3csc4c(-c5cnc([C@@H]6CCCN6C(=O)[C@@H](NC(=O)OC)C(C)C)[nH]5)csc34)cc2)[nH]1)C(C)C ) has EC50 equal to < 0.1 nM

###

Quick list: CC50 per entry.
# Assay overview: in vitro
# Type: cell-based
# Run parameters: human; GS4.1 cells, cellular viability

Answered cases to consult:
Compound	CC50
COC(=O)N[C@H](C(=O)N1CCC[C@H]1c1cc(-c2ccc(-c3cn4cc(NC(=O)[C@@H]5CCCN5C(=O)[C@H](NC(=O)OC(C)C)c5ccccc5)nc4s3)cc2)[nH]n1)C(C)C	> 75 µM
COC(=O)N[C@H](C(=O)N1CCC[C@H]1c1ncc(-c2ccc(-c3cn4cc(NC(=O)[C@@H]5CCCN5)nc4s3)cc2)[nH]1)C(C)C	10 to 75 µM
COC(=O)N[C@H](C(=O)N1CCCC1c1nc(-c2ccc(-c3cn4cc(-c5ccc(-c6cnc([C@@H]7CCCN7C(=O)[C@@H](NC(=O)OC)C(C)C)[nH]6)cc5)sc4n3)cc2)c[nH]1)C(C)C (some centres unmarked)	> 75 µM

Per the records, this compound ( COC(=O)N[C@H](C(=O)N1CCC[C@H]1C(=O)Nc1cn2cc(-c3cccc(NC(=O)[C@@H]4CCCN4C(=O)[C@H](NC(=O)OC)c4ccccc4)c3)sc2n1)C(C)C ) has CC50 equal to 10 to 75 µM

Per the records, this compound ( COC(=O)N[C@H](C(=O)N1CCC[C@H]1c1ncc(-c2ccc(-c3cc4sc(-c5cnc([C@@H]6CCCN6C(=O)[C@@H](NC(=O)OC)C(C)C)[nH]5)cc4s3)cc2)[nH]1)C(C)C ) has CC50 equal to > 75 µM

Per the records, this compound ( COC(=O)N[C@H](C(=O)N1CCCC1c1ncc(-c2cc3sc(-c4ncc(-c5c[nH]c([C@@H]6CCCN6C(=O)[C@@H](NC(=O)OC)C(C)C)n5)s4)cc3s2)[nH]1)C(C)C (some centres unmarked) ) has CC50 equal to > 75 µM

Per the records, this compound ( CC(C)(C)OC(=O)N1CCCC1c1ncc(-c2ccc(-c3nc4sccn4c3Cl)cc2)[nH]1 (centres unmarked) ) has CC50 equal to > 75 µM

Per the records, this compound ( COC(=O)N[C@H](C(=O)N1CCC[C@H]1c1ncc(C#Cc2csc3c(-c4ccc(-c5cnc([C@@H]6CCCN6C(=O)[C@@H](NC(=O)OC)C(C)C)[nH]5)cc4)csc23)[nH]1)C(C)C ) has CC50 equal to > 75 µM

###

Quick list: CC50 per entry.
# Assay overview: in vitro
# Type: cell-based
# Run parameters: human; GS4.1 cells, cellular viability

Answered cases to consult:
Compound	CC50
COC(=O)N[C@H](C(=O)N1CCC[C@H]1C(=O)Nc1ccc(-c2cn3cc(NC(=O)C4CCCN4C(=O)[C@@H](NC(=O)OC)C(C)C)nc3s2)cc1)c1ccccc1 (some centres unmarked)	> 75 µM
COC(=O)N[C@H](C(=O)N1CCC[C@H]1c1ncc(-c2ccc(-c3cn4cc(NC(=O)[C@@H]5CCCN5C(=O)[C@H](NC(=O)OC(C)C)c5ccccc5)nc4s3)cc2)[nH]1)C(C)C	> 75 µM
COC(=O)N[C@H](C(=O)N1CCCC1c1ncc(-c2ccc(-c3csc4c(-c5cnc(C6CCCN6C(=O)OC(C)(C)C)[nH]5)csc34)cc2)[nH]1)C(C)C (some centres unmarked)	10 to 75 µM

Per the records, this compound ( COC(=O)N[C@H](C(=O)N1CCC[C@H]1C(=O)Nc1cn2cc(-c3ccc(NC(=O)CNC(=O)[C@H](NC(=O)OC(C)(C)C)c4ccccc4)cc3)sc2n1)C(C)C ) has CC50 equal to > 75 µM

Per the records, this compound ( COC(=O)N[C@H](C(=O)N1CCC[C@H]1C(=O)Nc1ccc(-c2cn3cc(NC(=O)OC(C)(C)C)nc3s2)cc1)C(C)C ) has CC50 equal to 10 to 75 µM

###

Quick list: pEC50 per entry.
# Test system: ZS11-luc L31F (HCV genotype 1b replicon)
# Assay overview: Luciferase replicon transient transfection assay, ZS11-luc L31F
# Type: cell-based, hepatitis C virus
# Run parameters: Hepatitis C virus, 96 h, Huh7.5 cells, 4 days
Remember the convention: pEC50 equals -log10 of concentration in molar.

Answered cases to consult:
Compound	pEC50
COC(=O)N[C@H](C(=O)N1CCC[C@H]1c1ncc(-c2ccc(-c3csc4c(-c5ccc6[nH]c([C@@H]7CCCN7C(=O)[C@H](NC(=O)OC)c7ccccc7)nc6c5)csc34)cc2)[nH]1)C(C)C	10.70
COC(=O)N[C@H](C(=O)N1CCC[C@H]1c1nc(-c2ccc(-c3ccc(-c4c[nH]c([C@@H]5CCCN5C(=O)[C@@H](NC(=O)OC)C(C)C)n4)cc3)cc2)c[nH]1)C(C)C [BMS-790052, reference compound]	10.00
COC(=O)N[C@H](C(=O)N1CCC[C@H]1c1nc2cc(-c3csc4c(-c5ccc(-c6cnc([C@@H]7CCCN7C(=O)[C@H](NC(=O)OC)c7ccccc7)[nH]6)cc5)csc34)ccc2[nH]1)C(C)C	11.00

Could you now consider this next compound?
Per the records, this compound ( COC(=O)N[C@H](C(=O)N1CCC[C@H]1c1ncc(-c2ccc(-c3csc4c(-c5cnc([C@@H]6CCCN6C(=O)[C@H](NC(=O)OC(C)(C)C)c6ccccc6)[nH]5)csc34)cc2)[nH]1)C(C)C ) has pEC50 equal to 11.00

###

Quick list: EC50 per entry.
# System: HCV genotype 3a NS5A within the 1b-replicon
# Assay overview: Luciferase replicon assay, NS5A-intergenotypic stable cell line genotype 3a
# Format: cell-based
# Run parameters: Hepatitis C virus, read-out: EC50 3a

Compound	EC50
COC(=O)N[C@H](C(=O)N1CCC[C@H]1c1nc2ccc(-c3csc4c(C#Cc5cnc([C@@H]6CCCN6C(=O)[C@H](NC(=O)OC)c6ccccc6)[nH]5)csc34)cc2[nH]1)C(C)C	< 0.1 nM
COC(=O)N[C@H](C(=O)N1CCC[C@H]1c1ncc(-c2ccc(-c3csc4c(-c5ccc6[nH]c([C@@H]7CCCN7C(=O)[C@@H](NC(=O)OC)C(C)C)nc6c5)csc34)cc2)[nH]1)C(C)C	1 to 10 nM
COC(=O)N[C@H](C(=O)N1CCC[C@H]1c1ncc(-c2ccc(-c3cc4sc(-c5ccc6[nH]c([C@@H]7CCCN7C(=O)[C@H](NC(=O)OC)c7ccccc7)nc6c5)cc4s3)cc2)[nH]1)C(C)C	0.1 to 1 nM

Per the records, this compound ( COC(=O)NC(C(=O)N1CCCC1c1ncc(-c2cc3sc(-c4ccc5[nH]c(C6CCCN6C(=O)C(NC(=O)OC)C(C)C)nc5c4)cc3s2)[nH]1)C(C)C (stereo in doubt) ) has EC50 equal to 0.1 to 1 nM

Per the records, this compound ( COC(=O)N[C@H](C(=O)N1CCC[C@H]1c1ncc(-c2ccc(-c3cc4sc(-c5cnc([C@@H]6CCCN6C(=O)[C@@H](NC(=O)OC)C(C)C)[nH]5)cc4s3)cc2)[nH]1)C(C)C ) has EC50 equal to 1 to 10 nM
